Biological target: T1, M10
T1 construct: also called PD1 mutant M10
Assay: scFv-phage ELISA
Items are presented alongside their recorded OD490.
Number only, please.

Example entries begin here.
{"columns": ["BINDER", "OD490"],
 "data": [
  ["PD1-52E8 (antibody, V domains shown, scFv-phage in the screening ELISA; whole IgG in the other assays) VH: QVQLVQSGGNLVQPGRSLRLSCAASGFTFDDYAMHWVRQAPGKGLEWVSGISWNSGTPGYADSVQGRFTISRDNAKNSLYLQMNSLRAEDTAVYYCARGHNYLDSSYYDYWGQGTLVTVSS VL: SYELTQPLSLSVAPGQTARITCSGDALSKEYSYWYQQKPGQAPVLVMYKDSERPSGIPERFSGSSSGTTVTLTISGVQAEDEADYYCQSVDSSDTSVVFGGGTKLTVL", 1],
  ["PD1-42G4 (antibody, V domains shown, scFv-phage in the screening ELISA; later whole IgG) VH: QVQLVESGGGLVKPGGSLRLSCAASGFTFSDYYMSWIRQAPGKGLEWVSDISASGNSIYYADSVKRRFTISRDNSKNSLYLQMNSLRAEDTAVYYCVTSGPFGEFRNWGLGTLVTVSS VL: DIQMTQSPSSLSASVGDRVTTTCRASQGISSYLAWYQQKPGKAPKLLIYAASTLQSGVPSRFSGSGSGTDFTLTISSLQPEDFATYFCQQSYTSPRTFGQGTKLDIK", 3.1]
]}

Proceed to the following item.
Any idea what its OD490 is? The binder is PD1-48A9 (antibody, V domains shown, scFv-phage in the screening ELISA; whole IgG in the other assays) VH: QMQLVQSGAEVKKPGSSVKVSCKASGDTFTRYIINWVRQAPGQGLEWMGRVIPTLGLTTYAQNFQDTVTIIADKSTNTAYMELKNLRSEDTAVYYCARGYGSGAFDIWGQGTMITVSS VL: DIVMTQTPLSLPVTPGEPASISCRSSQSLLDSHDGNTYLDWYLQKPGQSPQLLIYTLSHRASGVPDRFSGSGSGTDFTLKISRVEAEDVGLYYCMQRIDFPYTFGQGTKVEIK
3.8
